Here, each record is paired with measured growth inhibition data.
Test: NCI Yeast Anticancer Drug Screen. Data for the cln2 rad14 strain (AID 165);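 also: 0% = growth equal to vehicle treated cultures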
Conditions: S. cerevisiae cln2 rad14 strain, at 50.0 µM, active compounds read high
About 79,000 compounds went through this panel and 15% of them were active in at least one assay; those are over-represented in the sample as a whole.
Give the quantity in %, number only.

{"molecule": "Cc1cc(N(CCC#N)CCC#N)ccc1/C=C(\\NC(=O)/C=C/c1ccccc1)C(=O)N=[N+]=[N-]", "growth inhibition (%)": -19.4}
{"molecule": "Cc1cccc(C2=N/C(=C\\c3ccccc3)C(=O)O2)c1", "growth inhibition (%)": 10.8}
{"molecule": "COC(=O)C(CC(=O)Nc1ccc(Cl)c(Cl)c1)C(=O)C(=O)NC1C2CC3CC(C2)CC1C3 (stereo unspecified)", "growth inhibition (%)": 7.8}
{"molecule": "Cn1ncc2[nH]c(=O)n(OS(=O)(=O)c3ccccc3)c(=O)c21", "growth inhibition (%)": 4.3}
{"molecule": "CSc1nc(C)c(Br)c(=O)n1C1OC(COC(C)=O)C(OC(C)=O)C(OC(C)=O)C1OC(C)=O (stereo unspecified)", "growth inhibition (%)": 22.2}
{"molecule": "O=C(COc1ccc(Cl)cc1)Nc1ccc(I)cc1", "growth inhibition (%)": -5.15}
{"molecule": "COC(=O)c1c(C(=O)OC)c(C(c2ccccc2)c2ccccc2)n(-c2ccccc2)c1Cl", "growth inhibition (%)": 0.65}
{"molecule": "Clc1ccc2nsnc2c1", "growth inhibition (%)": 16.8}

Which growth inhibition is listed for CC(CCl)NS(=O)(=O)c1ccccc1 (stereo unspecified) ?
0.85

And then O=c1[nH]c(=O)n(C2OC(CF)C(O)C2O)cc1N1CCOCC1 (stereo unspecified) , what is it?
17.7

And then N=C(N)n1[nH]c2c(c1=O)CCCC2 , what is it?
6.25

----------
Here, each record is paired with measured growth inhibition data.
Assay: NCI Yeast Anticancer Drug Screen. Data for the mlh1 rad18 strain (AID 175)
Conditions: S. cerevisiae mlh1 rad18 strain growth inhibition; at 50.0 µM; active compounds read high
This is part of a sample that, as a whole, favours compounds with a hit. Of some 79,000 tested, about 15% had one in any assay. Calls of active or inactive are those of the source. No stated cut-off is given here; in the data, active means growth inhibition above about 70%; inactive means the rest.

{"molecular_string": "CCc1cc(C(C)(C)C)c(O)c(C(C)(C)C)c1", "growth inhibition": "35.4% (inactive)"}
{"molecular_string": "Nc1cc(S(=O)(=O)O)cc2cccc(S(=O)(=O)O)c12", "growth inhibition": "30.8% (inactive)"}
{"molecular_string": "Fc1cccc(CSc2cnnc(SCc3cccc(F)c3)c2SCc2cccc(F)c2)c1", "growth inhibition": "-32% (inactive)"}
{"molecular_string": "CC1(C(N)=O)CCC1", "growth inhibition": "-20.9% (inactive)"}

Consider now this further compound.
Which growth inhibition is listed for Cn1c2ccccc2c2nn3cnnc3nc21 ?
-1.95% (inactive)

----------
Here, each record is paired with measured growth inhibition data.
Experiment: NCI Yeast Anticancer Drug Screen. Data for the bub3 strain (AID 167)
Settings: S. cerevisiae bub3 mutant strain, at 50.0 µM, active compounds read high
The panel holds about 79,000 compounds, 15% with a hit somewhere; the sample as a whole holds those more often.
Give the quantity in %, number only.

Known growth inhibition results, listed for orientation:
{"molecule": "CCC(C)NC(=O)/C=C/c1ccccc1 (stereo unspecified)", "growth inhibition (%)": -1.1}
{"molecule": "CC1(C)OP2(O)(OC(C)(C)c3ccccc32)c2ccccc21", "growth inhibition (%)": 6.85}
{"molecule": "Cc1ccccc1-n1c(C)nc(-c2ccccc2)cc1=O", "growth inhibition (%)": -9.4}
{"molecule": "CC(=O)NCC1(c2ccccc2)CCN(Cc2ccccc2)CC1", "growth inhibition (%)": -17}
{"molecule": "O=C(Nc1nc(=S)c2c(ncn2CCO)[nH]1)c1ccccc1", "growth inhibition (%)": 4.7}

Which growth inhibition is listed for CC1CC[N+]2(C)CCCC12 (stereo unspecified) ?
-23.9

And then COc1ccc(OC)c(CNc2ccc(C(=O)O)cc2)c1 , what is it?
6.75

And then O=C(O)CC(O)c1ccccc1 (stereo unspecified) , what is it?
-0.95

And then CCN(CC)c1nc(N(CC)CC)nc(N(CC)CC)n1 , what is it?
13.8

And then C=CCCCCCCCCC(=O)OC1CCCCC1 , what is it?
15.4

And then CCCCCCC(=O)C(N)Cc1ccccc1 (stereo unspecified) , what is it?
-1.1

The reported numbers originate from PubChem BioAssay (NCI).
